- subjectOfTest: Potassium voltage-gated channel subfamily A member 5 (Homo sapiens, UniProt P22460)
- Sequence (P22460 whole entry): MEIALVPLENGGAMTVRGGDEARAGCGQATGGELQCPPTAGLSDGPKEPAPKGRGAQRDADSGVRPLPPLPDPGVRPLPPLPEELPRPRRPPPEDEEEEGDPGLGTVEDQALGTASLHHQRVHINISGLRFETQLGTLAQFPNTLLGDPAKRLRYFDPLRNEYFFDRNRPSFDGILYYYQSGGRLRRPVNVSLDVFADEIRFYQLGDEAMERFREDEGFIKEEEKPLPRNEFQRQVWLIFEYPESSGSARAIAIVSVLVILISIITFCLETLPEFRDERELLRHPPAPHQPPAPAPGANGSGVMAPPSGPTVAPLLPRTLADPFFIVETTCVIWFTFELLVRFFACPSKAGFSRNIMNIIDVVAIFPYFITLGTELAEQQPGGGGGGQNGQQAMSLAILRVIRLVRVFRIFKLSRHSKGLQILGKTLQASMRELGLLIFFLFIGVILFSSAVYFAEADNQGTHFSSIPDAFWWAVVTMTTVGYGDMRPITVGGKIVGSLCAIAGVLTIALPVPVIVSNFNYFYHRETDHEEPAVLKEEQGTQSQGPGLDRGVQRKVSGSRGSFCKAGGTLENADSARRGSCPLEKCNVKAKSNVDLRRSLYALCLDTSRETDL
- protocolNotes: Inhibition of human Kv1.5 channel expressed in mouse L929 cells
For each record, write down the corresponding pIC50.
Please treat pIC50 as minus the base-10 logarithm of the molar concentration.

Given the compound `CCc1ccc(S(=O)(=O)N[C@@H]2c3cc(C(=O)Nc4ccccc4)ccc3OC(C)(C)[C@H]2O)cc1` , write its reported pIC50.
6.59

Given the compound `CCc1ccc(S(=O)(=O)N[C@@H]2c3cc(C(=O)n4nc(-c5ccccc5)cc4N)ccc3OC(C)(C)[C@H]2O)cc1` , write its reported pIC50.
7.10

====

- subjectOfTest: UniProtKB P22460
- protocolNotes: Inhibition of human Kv1.5 channel expressed in mouse L929 cells
For each record, write down the corresponding pIC50.
Please treat pIC50 as minus the base-10 logarithm of the molar concentration.

Given the compound `CCc1ccc(S(=O)(=O)N[C@@H]2c3cc(C(=O)N(C)c4ccccc4)ccc3OC(C)(C)[C@H]2O)cc1` , write its reported pIC50.
6.55

Given the compound `Cc1ccc(S(=O)(=O)N[C@@H]2c3cc(C(=O)NCCc4ccccc4)ccc3OC(C)(C)[C@H]2O)cc1` , write its reported pIC50.
6.40

Given the compound `CCc1ccc(S(=O)(=O)N[C@@H]2c3cc(C(=O)N4CCC[C@H]4CNc4c(C)cccc4C)ccc3OC(C)(C)[C@H]2O)cc1` , write its reported pIC50.
6.92

Given the compound `CCc1ccc(S(=O)(=O)N[C@@H]2c3cc(C(=O)N(CC)CCNc4ccccc4)ccc3OC(C)(C)[C@H]2O)cc1` , write its reported pIC50.
7.11

Given the compound `CCc1ccc(S(=O)(=O)N[C@@H]2c3cc(NC(=O)c4cccc(OC)c4)ccc3OC(C)(C)[C@H]2O)cc1` , write its reported pIC50.
6.54

Given the compound `CCc1ccc(S(=O)(=O)N(Cc2cnc[nH]2)[C@@H]2c3cc(C(=O)NCCc4ccccc4)ccc3OC(C)(C)[C@H]2O)cc1` , write its reported pIC50.
6.55

Given the compound `CCc1ccc(S(=O)(=O)N[C@H]2CC(C)(C)Oc3ccc(C(=O)N4CCC[C@H]4CNc4c(C)cccc4C)cc32)cc1` , write its reported pIC50.
6.96

Given the compound `CCc1ccc(S(=O)(=O)N[C@H]2c3cc(C(=O)N4CCC[C@@H]4CNc4c(C)cccc4C)ccc3OC(C)(C)[C@@H]2O)cc1` , write its reported pIC50.
7.05

Given the compound `CCc1ccc(S(=O)(=O)N[C@@H]2c3cc(C(=O)N(CC)[C@@H]4CCN(Cc5ccccc5)C4)ccc3OC(C)(C)[C@H]2O)cc1` , write its reported pIC50.
6.68

Given the compound `CC1(C)Oc2ccc(C(=O)NCCc3ccccc3)cc2[C@@H](NS(=O)(=O)c2ccccc2OC(F)(F)F)[C@@H]1O` , write its reported pIC50.
6.82

Given the compound `CCc1ccc(S(=O)(=O)N(Cc2ccccn2)[C@@H]2c3cc(C(=O)NCCc4ccccc4)ccc3OC(C)(C)[C@H]2O)cc1` , write its reported pIC50.
6.92

Given the compound `CCc1ccc(S(=O)(=O)N(CC(C)(C)C)[C@@H]2c3cc(C(=O)NCCc4ccccc4)ccc3OC(C)(C)[C@H]2O)cc1` , write its reported pIC50.
6.92

Given the compound `CCc1ccc(S(=O)(=O)N[C@@H]2c3cc(C(=O)N(CC)[C@H]4CCN(Cc5ccccc5)C4)ccc3OC(C)(C)[C@H]2O)cc1` , write its reported pIC50.
6.77

Given the compound `CC1(C)Oc2ccc(C(=O)NCCc3ccccc3)cc2[C@@H](NS(=O)(=O)c2ccc(C(F)(F)F)cc2)[C@@H]1O` , write its reported pIC50.
6.70

Given the compound `CCc1ccc(S(=O)(=O)N[C@@H]2c3cc(C(=O)N4CCC[C@@H]4CNc4c(C)cccc4C)ccc3OC(C)(C)[C@H]2O)cc1` , write its reported pIC50.
6.89

Given the compound `Cc1cccc(S(=O)(=O)N[C@@H]2c3cc(C(=O)NCCc4ccccc4)ccc3OC(C)(C)[C@H]2O)c1` , write its reported pIC50.
6.47

Given the compound `CCCCN([C@@H]1c2cc(C(=O)NCCc3ccccc3)ccc2OC(C)(C)[C@H]1O)S(=O)(=O)c1ccc(CC)cc1` , write its reported pIC50.
7.24

Given the compound `CCc1ccc(S(=O)(=O)N(CC(C)C)[C@@H]2c3cc(C(=O)NCCc4ccccc4)ccc3OC(C)(C)[C@H]2O)cc1` , write its reported pIC50.
6.49

Given the compound `CCc1ccc(S(=O)(=O)N[C@H]2c3cc(C(=O)N(CC)[C@H]4CCN(Cc5ccccc5)C4)ccc3OC(C)(C)[C@@H]2O)cc1` , write its reported pIC50.
6.70

Given the compound `CCc1ccc(S(=O)(=O)N[C@@H]2c3cc(CNCCc4ccccc4)ccc3OC(C)(C)[C@H]2O)cc1` , write its reported pIC50.
6.62

Given the compound `CCc1ccc(S(=O)(=O)N[C@H]2c3cc(C(=O)N4CCC[C@H]4CNc4c(C)cccc4C)ccc3OC(C)(C)[C@@H]2O)cc1` , write its reported pIC50.
6.59

Given the compound `CCc1ccc(S(=O)(=O)N(Cc2cccnc2)[C@@H]2c3cc(C(=O)NCCc4ccccc4)ccc3OC(C)(C)[C@H]2O)cc1` , write its reported pIC50.
6.89

Given the compound `CCc1ccc(S(=O)(=O)N[C@@H]2c3cc(C(=O)NCCc4ccccc4)ccc3OC(C)(C)[C@H]2O)cc1` , write its reported pIC50.
6.59

====

- subjectOfTest: hERG (KCNH2) (Homo sapiens, UniProt Q12809)
- Sequence (Q12809 whole entry): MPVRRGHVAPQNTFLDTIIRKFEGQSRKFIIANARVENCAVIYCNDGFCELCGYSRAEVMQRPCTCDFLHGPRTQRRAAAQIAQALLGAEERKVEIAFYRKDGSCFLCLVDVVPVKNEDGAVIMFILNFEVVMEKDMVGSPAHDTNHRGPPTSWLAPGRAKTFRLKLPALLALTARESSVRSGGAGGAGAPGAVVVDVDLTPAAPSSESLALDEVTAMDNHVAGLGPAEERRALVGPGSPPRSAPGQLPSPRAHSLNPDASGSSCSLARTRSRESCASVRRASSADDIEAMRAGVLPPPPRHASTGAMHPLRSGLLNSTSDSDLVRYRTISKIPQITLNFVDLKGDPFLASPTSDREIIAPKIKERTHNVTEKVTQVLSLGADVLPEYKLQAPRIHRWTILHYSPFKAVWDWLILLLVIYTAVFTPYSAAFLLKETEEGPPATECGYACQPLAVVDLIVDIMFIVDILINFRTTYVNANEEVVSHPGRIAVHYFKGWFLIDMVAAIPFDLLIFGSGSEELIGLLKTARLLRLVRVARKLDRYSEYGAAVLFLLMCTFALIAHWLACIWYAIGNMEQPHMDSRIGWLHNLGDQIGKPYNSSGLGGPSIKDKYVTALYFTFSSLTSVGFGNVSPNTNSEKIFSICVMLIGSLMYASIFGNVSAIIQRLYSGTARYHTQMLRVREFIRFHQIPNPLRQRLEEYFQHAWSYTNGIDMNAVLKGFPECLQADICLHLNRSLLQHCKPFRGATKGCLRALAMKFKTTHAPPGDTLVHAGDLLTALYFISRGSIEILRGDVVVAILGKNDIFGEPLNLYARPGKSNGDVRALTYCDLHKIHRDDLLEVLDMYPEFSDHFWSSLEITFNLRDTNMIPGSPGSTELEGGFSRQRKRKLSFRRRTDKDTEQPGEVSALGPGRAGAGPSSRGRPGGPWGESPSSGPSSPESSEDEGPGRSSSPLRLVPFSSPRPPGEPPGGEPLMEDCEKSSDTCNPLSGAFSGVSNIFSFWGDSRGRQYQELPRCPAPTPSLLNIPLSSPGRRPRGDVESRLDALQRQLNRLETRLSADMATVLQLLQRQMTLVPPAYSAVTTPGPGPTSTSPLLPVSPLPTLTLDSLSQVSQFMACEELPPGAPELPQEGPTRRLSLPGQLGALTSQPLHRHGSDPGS
- protocolNotes: Inhibition of human ERG expressed in human embryonic kidney cells at 10 uM
- Format: cell-based
- experimentalParameters: human embryonic kidney cells expressing human ERG
measurementKind: inhibition at 10 µM
Write your answer as a measured quantity: the number, then the unit.

Given the compound `CCc1ccc(S(=O)(=O)N[C@H]2CC(C)(C)Oc3ccc(C(=O)N4CCC[C@H]4CNc4c(C)cccc4C)cc32)cc1` , write its reported inhibition at 10 µM.
51%

Given the compound `CCc1ccc(S(=O)(=O)N[C@@H]2c3cc(C(=O)N(CC)Cc4ccccc4F)ccc3OC(C)(C)[C@H]2O)cc1` , write its reported inhibition at 10 µM.
7%

Given the compound `CCc1ccc(S(=O)(=O)N[C@@H]2c3cc(NC(=O)c4cccc(OC)c4)ccc3OC(C)(C)[C@H]2O)cc1` , write its reported inhibition at 10 µM.
40%

Given the compound `CCc1ccc(S(=O)(=O)N(Cc2cccnc2)[C@@H]2c3cc(C(=O)NCCc4ccccc4)ccc3OC(C)(C)[C@H]2O)cc1` , write its reported inhibition at 10 µM.
61%

Given the compound `CCc1ccc(S(=O)(=O)N[C@H]2c3cc(C(=O)N(CC)[C@H]4CCN(Cc5ccccc5)C4)ccc3OC(C)(C)[C@@H]2O)cc1` , write its reported inhibition at 10 µM.
80%

Given the compound `CCCCN([C@@H]1c2cc(C(=O)NCCc3ccccc3)ccc2OC(C)(C)[C@H]1O)S(=O)(=O)c1ccc(CC)cc1` , write its reported inhibition at 10 µM.
35%

Given the compound `CCc1ccc(S(=O)(=O)N[C@@H]2c3cc(C(=O)n4nc(-c5ccccc5)cc4N)ccc3OC(C)(C)[C@H]2O)cc1` , write its reported inhibition at 10 µM.
47%

====

- subjectOfTest: Potassium voltage-gated channel subfamily A member 5 (Homo sapiens)
- protocolNotes: Inhibition of human Kv1.5 channel expressed in mouse L929 cells
measurementKind: pIC50
Please treat pIC50 as minus the base-10 logarithm of the molar concentration.

Given the compound `CCc1ccc(S(=O)(=O)N[C@H]2c3cc(C(=O)N(CC)[C@@H]4CCN(Cc5ccccc5)C4)ccc3OC(C)(C)[C@@H]2O)cc1` , write its reported pIC50.
6.66

Given the compound `CCc1ccc(S(=O)(=O)N[C@@H]2c3cc(S(=O)(=O)NCCc4ccccc4)ccc3OC(C)(C)[C@H]2O)cc1` , write its reported pIC50.
6.29

Given the compound `CCc1ccc(S(=O)(=O)N[C@@H]2c3cc(C(=O)N(CC)Cc4ccccc4F)ccc3OC(C)(C)[C@H]2O)cc1` , write its reported pIC50.
6.77

====

- subjectOfTest: hERG (KCNH2) (Homo sapiens, UniProt Q12809)
- protocolNotes: Inhibition of human ERG expressed in human embryonic kidney cells at 10 uM
- Type: cell-based
- experimentalParameters: human embryonic kidney cells expressing human ERG
For each record, write down the corresponding inhibition at 10 µM.
Hi! Could you send only the number? It should be in %, unit omitted.

Given the compound `CCc1ccc(S(=O)(=O)N[C@@H]2c3cc(NC(=O)c4cccc(OC)c4)ccc3C[C@H]2O)cc1` , write its reported inhibition at 10 µM.
21

Given the compound `CCc1ccc(S(=O)(=O)N[C@@H]2c3cc(C(=O)N4CCC[C@H]4CNc4c(C)cccc4C)ccc3OC(C)(C)[C@H]2O)cc1` , write its reported inhibition at 10 µM.
9

Given the compound `CCc1ccc(S(=O)(=O)N[C@@H]2c3cc(C(=O)N(CC)CCNc4ccccc4)ccc3OC(C)(C)[C@H]2O)cc1` , write its reported inhibition at 10 µM.
39

Data provenance: ChEMBL document CHEMBL1145354
